Target: σ2 receptor (Rattus norvegicus)
Construct: Rat liver membranes were prepared from male Sprague-Dawley rat livers as previously described; from tissue; host or cells: rat (Sprague-Dawley) liver membranes
Sequence (Q5U3Y7 whole entry): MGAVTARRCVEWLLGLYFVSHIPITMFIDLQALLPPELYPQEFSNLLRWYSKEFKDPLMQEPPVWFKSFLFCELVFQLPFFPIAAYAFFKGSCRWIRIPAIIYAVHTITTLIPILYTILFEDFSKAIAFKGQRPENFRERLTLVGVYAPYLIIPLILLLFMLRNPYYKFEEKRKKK
Experiment: σ2 receptor competition binding assay, [3H]-DTG, rat liver membranes
Settings: quantity not named in table head; methods calculate apparent Ki (Cheng-Prusoff); read-out: σ-2
pKi: −log10 of the molar value.
We use 7 as the dividing line for pKi: on or above the line is yes, below is no.

Look over these answered cases.
• CCCN(CCCCCCN1CC[S][Re]2(=[O])[S]CC[N]2C(=O)C1)C1CCc2c(cccc2OC)C1 (centres unmarked) = no
• O=C1CN(CCCCCCN2CCC(c3ccccc3)CC2)CC[S][Re]2(=[O])[S]CC[N]12 (centres unmarked) = yes
• COc1cc2c(cc1OC)CN(CCCCCCN1CC[S][Re]3(=[O])[S]CC[N]3C(=O)C1)C2 (centres unmarked) = yes
• C[N+]1(C)CC[N+]2(CCCCCCN3CCC(c4ccccc4)CC3)Cc3ccccc3[O][Re-2]12(=[C]=O)(=[C]=O)=[C]=O (centres unmarked) [Re-L16b] = no

[ask] Evaluate O=C1C[S][Re-]23(=[O])[S]CC[N+]2(CCCCCCN2CCC(c4ccccc4)CC2)CC[N]13 (centres unmarked) : pKi at minimum 7?
[reply] no
